Assign Selectivity Index (CC50/IC50), amastigotes to each entry below.
Tested on: Leishmania donovani intracellular amastigotes
Assay: Intracellular amastigote assay in infected RAW 264.7 cells
Assay type: cell-based
Settings: CC50 Raw 264.7 / IC50 intracellular amastigotes
// no unit, no text: just the number

Form field Selectivity Index (CC50/IC50), amastigotes, entry O=C(O)c1ccccc1O [Salicylic acid, salicylic acid] : 0.69

Entry COc1cc(/C=C/C(=O)O)ccc1O [Ferulic acid, ferulic acid] — recorded Selectivity Index (CC50/IC50), amastigotes = 6.30

Entry under test: COc1cc(C(=O)O)ccc1O [Vanillic acid, vanillic acid] . Its Selectivity Index (CC50/IC50), amastigotes was 0.19

Selectivity Index (CC50/IC50), amastigotes measured on C[C@@H]1[C@H](O)[C@@H](C)/C=C/C=C/C=C/C=C/C=C/C=C/C=C/[C@H](O[C@@H]2O[C@H](C)[C@@H](O)[C@H](N)[C@@H]2O)C[C@@H]2O[C@](O)(C[C@@H](O)C[C@@H](O)[C@H](O)CC[C@@H](O)C[C@@H](O)CC(=O)O[C@H]1C)C[C@H](O)[C@H]2C(=O)O [Amphotericin B, reference compound] = 2.40

# Selectivity Index (CC50/IC50), amastigotes (molecule: O=C(O)c1cc(O)c(O)c(O)c1 [Gallic acid, gallic acid] ) is 0.60

Reported Selectivity Index (CC50/IC50), amastigotes ( O=c1cc(-c2ccc(O)cc2)oc2cc(O)cc(O)c12 [Apigenin, apigenin] ) = 5.21

Lab note: measured Selectivity Index (CC50/IC50), amastigotes of O=C(O)/C=C/c1ccc(O)c(O)c1 [Caffeic acid, caffeic acid] was 2.29
